The entries below are paired with their reported IC50.
target: His6-PDK1(Δ1-50) (Homo sapiens); construct: His6 (N); experiment: Inhibition of PDK1 (IC50), 384-well flashplate kinase assay; type: biochemical; conditions: 4 μM ATP, 400 nM PDKtide, second part of Table 1 (compounds 32-124)
Sequence (O15530 51-556, stated change not applied): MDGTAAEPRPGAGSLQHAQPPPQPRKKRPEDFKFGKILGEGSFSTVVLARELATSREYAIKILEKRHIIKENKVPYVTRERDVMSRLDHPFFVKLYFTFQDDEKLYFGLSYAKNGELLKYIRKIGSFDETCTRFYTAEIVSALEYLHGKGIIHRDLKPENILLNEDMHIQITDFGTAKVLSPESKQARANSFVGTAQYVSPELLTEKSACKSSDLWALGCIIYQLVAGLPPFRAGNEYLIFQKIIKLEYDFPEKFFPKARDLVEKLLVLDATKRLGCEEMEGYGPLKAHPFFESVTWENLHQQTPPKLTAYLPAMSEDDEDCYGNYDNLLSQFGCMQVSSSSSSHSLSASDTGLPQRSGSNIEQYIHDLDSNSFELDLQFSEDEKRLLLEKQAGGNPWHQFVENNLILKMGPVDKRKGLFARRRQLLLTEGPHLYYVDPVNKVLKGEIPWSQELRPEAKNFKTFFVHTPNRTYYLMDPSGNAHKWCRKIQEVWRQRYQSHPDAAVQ
EXPERIMENTAL READOUT: IC50 (µM)

• CN1CCC(N(C)c2ncc3c(n2)Nc2ccc(-c4cccs4)cc2NC3=O)CC1 = 1
• CCN1CCC(Nc2ncc3c(n2)Nc2ccc(C(C)C)cc2NC3=O)CC1 = 0.92
• CC(C)c1ccc2c(c1)NC(=O)c1cnc(NC3CCN(C(C)C)CC3)nc1N2 = 1.2
